# Test system: SK-MEL-5 melanoma
# Test: NCI tumour cell line growth inhibition, 48 h
Outcome Measure: TGI (µM)

>>> observed("CCOC(=O)c1cc2c(n1Cc1ccccc1)-c1oncc1CC2")
12
>>> observed("CCc1nc(Cl)nc(Cl)c1Cl")
7.71
>>> observed("CCCCCCCN1C(=O)C(O)(c2ccc(C3(O)C(=O)N(CCCCCCC)c4ccccc43)s2)c2ccccc21 (stereo not given)")
3.26

* * *

TGI: recorded values
# Test system: A549 NSCLC
# Test: NCI tumour cell line growth inhibition, 48 h
Outcome Measure: TGI

>>> observed("O=C(O)C1(Cc2cccc(Nc3nccs3)n2)CCC(Oc2cccc(Cl)c2F)CC1 (centres undefined)")
"> 60 µM"
>>> observed("COc1ccc2c(c1)CCC1=CC3(CCC12C)SCCS3 (centres undefined)")
"> 10 µM"
>>> observed("C[C@H]1C(Oc2ccc(O)cc2)OC2OC3(C)CCC4[C@H](C)CCC1C24OO3 (some centres undefined)")
"30.6 µM"
>>> observed("Cc1cc(C)c(S(=O)(=O)ONC(=O)OC(C)(C)C)c(C)c1")
"> 100 µM"
>>> observed("C[C@]12[C@@H]3CC[C@H]1[C@@H](OC(=O)Nc1cc([N+](=O)[O-])cc([N+](=O)[O-])c1)C(=O)N2CC3")
"> 100 µM"
>>> observed("O=C1C2c3[nH]c4ccccc4c3[C@@H]3CCCCC3C2C(=O)N1c1ccccc1 (some centres undefined)")
"> 100 µM"
>>> observed("C/C=C/C(=O)N1C(=O)OC[C@@H]1c1ccccc1")
"36.3 µM"
>>> observed("C=CCN(C)CN(C)c1nc(N(C)C)nc(N(C)C)n1")
"> 100 µM"
>>> observed("C=CC[C@@H]1C(=O)[C@@]2(O[Si](C(C)C)(C(C)C)C(C)C)CC[C@@H]1C[C@H]2NC(=O)OCC(Cl)(Cl)Cl")
"> 100 µM"
>>> observed("COC(=O)c1ccc(Cc2ccc(C(=O)OC)o2)o1")
"> 378 µM"
>>> observed("CSc1nc2[nH]c(=O)c(C)nc2c(=O)[nH]1")
"> 100 µM"
>>> observed("CC1(C)CC(=O)c2c(nc(SSc3nc4c(c(-c5ccccc5)c3C#N)C(=O)CC(C)(C)C4)c(C#N)c2-c2ccccc2)C1")
"> 10 µM"
>>> observed("N#CCCN(CCN(C(=O)Nc1ccccc1)c1ccccc1)C(=O)Nc1ccccc1")
"> 100 µM"
>>> observed("COC(=O)c1ccccc1/C=C1\\Cc2cc(C)c(C)cc2C1=O")
"> 100 µM"
>>> observed("NC(CCOCCP(=O)(O)CCOCCC(N)C(=O)O)C(=O)O (centres undefined)")
"> 100 µM"
>>> observed("N[C@@H]1CCCN(c2c(/C=C3\\SC(=O)NC3=O)cccc2-c2ccccc2)C1")
"31.8 µM"
>>> observed("COC(=O)C(Cc1nc2ccc(Cl)cc2[nH]c1=O)/C(=N/NC(N)=O)C(=O)Nc1ccc(Cl)cc1 (centres undefined)")
"> 100 µM"
>>> observed("CCN1C(=O)N(c2ccccc2)C2NN=c3s/c(=C4\\C(=O)N(C(C)C)c5ccccc54)c(=O)n3C21 (centres undefined)")
"> 40.5 µM"
>>> observed("CC(=O)OC1CC2C(C)(C)C(=O)C=CC2(C)C2CCC3(C)C(c4ccoc4)OC(=O)C4OC43C12C (centres undefined)")
"86.9 µM"
>>> observed("CNC1C(O)C(OC2C(N)CC(N)C(OC3OC(C(C)O)C(O)C(O)C3N)C2O)OCC1(C)O (centres undefined)")
"> 100 µM"
>>> observed("Cc1ccc(C)c(NC(=O)CCc2nc(=S)[nH][nH]2)c1")
"> 100 µM"
>>> observed("[N-]=[N+]=NC(CBr)c1cn([C@H]2C[C@H](O)[C@@H](CO)O2)c(=O)[nH]c1=O (some centres undefined)")
"> 100 µM"
>>> observed("CC(=O)[O-].O=C([CH-]C(=O)c1ccccc1)c1ccccc1.O=C([CH-]C(=O)c1ccccc1)c1ccccc1.[Y+3]")
"34.3 µM"
>>> observed("C=CCNC1=C2C[C@@H](C)C[C@@H](OC)[C@H](OC(=O)CN)[C@H](C)/C=C(\\C)[C@@H](OC(N)=O)[C@H](OC)/C=C\\C=C(/C)C(=O)NC(=CC1=O)C2=O")
"21 µM"
>>> observed("Cc1nc2n(c(=O)c1CCN1CCC(c3noc4cc(F)ccc34)CC1)CCCC2")
"> 50 µM"
>>> observed("Cc1c(C)c(S(=O)(=O)N(CCCN)OCCCN)c(C)c2c1OC(C)(C)C2")
"> 100 µM"
>>> observed("Cc1ccc2[nH]c3c(ncc4[nH]c5ccccc5c43)c2c1")
"32.7 µM"
>>> observed("COc1ccccc1S(=O)(=O)Nc1ccc2c(c1)CN(C)C(=O)N2")
"> 100 µM"
>>> observed("O=[N+]([O-])c1ccc2ncccc2c1Cl")
"> 100 µM"
>>> observed("CN(C[C@@H]1COCCO1)S(=O)(=O)Nc1ccc2ccc3ncc(-c4cnn(C)c4)cc3c(=O)c2c1")
"> 100 µM"
>>> observed("OC1CN2Cc3cc4c(cc3[C@]13C=C[C@@H](O)CC23)OCO4 (some centres undefined)")
"> 100 µM"
>>> observed("C=C(C)[C@@H]1CC[C@]2(COC3CCCCO3)CC[C@]3(C)[C@H](CC[C@@H]4[C@@]5(C)C=C(C=O)C(=O)C(C)(C)[C@@H]5CC[C@]43C)[C@@H]12 (some centres undefined)")
"3.15 µM"
>>> observed("CCCSC1=NC2C(N(CC)C(=O)N2CC)N1/N=C/C=C/c1ccccc1[N+](=O)[O-] (centres undefined)")
"> 100 µM"
>>> observed("COC12CC(=O)C(C(C)=O)=C(O)C1(C)c1c(OC(C)=O)c(C)c(O)c(C(C)=O)c1O2 (centres undefined)")
"> 100 µM"

The reported numbers originate from PubChem BioAssay (NCI).
